test: Differential scanning fluorimetry (protein thermal shift; TM1 Fc, TM2 Fab); type: physicochemical; conditions: melting temperature of the Fab domain; Table 11
RESULT_TYPE: TM2 (°C)
Numbers only; they are read as °C.

// TM2 lookup, molecule = SRP2196-B01 (antibody, V domains shown) VH: EVQLVESGGGLVQPGGSLRLSCAASGFNITGYYIHWVRQAPGKGLEWVGQISPNSGYTYYADSVKGRFTISADTSKNTTYLQMNSLRAEDTAVYYCARDSRRYVRSWDYWGQGTLVTVSS VL: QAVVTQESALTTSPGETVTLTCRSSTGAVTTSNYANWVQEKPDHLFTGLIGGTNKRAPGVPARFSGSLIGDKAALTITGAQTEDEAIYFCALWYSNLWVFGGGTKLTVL , result: 75

// TM2 lookup, molecule = SRP2196-C03 (antibody, V domains shown) VH: EVQLVESGGGLVQPGGSLRLSCAASGFNITGYYIHWVRQAPGKGLEWVGQISPNSGSTYSADSVKGRFTISADTSKNTAYLQMSSLRAEDTAVYYCARDSRRYVLSWDYWGQGTLVTVSS VL: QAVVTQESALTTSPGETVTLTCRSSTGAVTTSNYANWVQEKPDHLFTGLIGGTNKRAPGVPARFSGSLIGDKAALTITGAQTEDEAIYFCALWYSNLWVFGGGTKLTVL , result: 69

// TM2 lookup, molecule = SRP2196-C04 (antibody, V domains shown) VH: EVQLVESGGGLVQPGGSLRLSCAASGFNITGYYIHWVRQAPGKGLEWVGFIAPLSGSTHNADSVKGRFTISADTSKNTAYLQMNSLRAEDTAVYYCARESRRYVNPWDYWGQGTLVTVSS VL: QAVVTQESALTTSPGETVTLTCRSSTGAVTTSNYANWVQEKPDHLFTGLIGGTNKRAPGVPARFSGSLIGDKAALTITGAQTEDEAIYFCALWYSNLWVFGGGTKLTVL , result: 70

// TM2 lookup, molecule = SRP2196-C01 (antibody, V domains shown) VH: EVQLVESGGGLVQPGGSLRLSCAASGFNIIGYYIHWVRQAPGKGLEWVGSITPLSGATSKADSVKGRFTISADTSKNTAYLQMNSLRAEDTAVYYCARDSRRYIRSWDYWGQGTLVTVSS VL: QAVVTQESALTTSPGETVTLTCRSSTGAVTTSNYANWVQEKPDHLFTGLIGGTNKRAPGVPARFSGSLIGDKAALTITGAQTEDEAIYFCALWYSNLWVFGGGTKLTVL , result: 70

// TM2 lookup, molecule = SRP2196-B04 (antibody, V domains shown) VH: EVQLVESGGGLVQPGGSLRLSCAASGFNITEYYIHWVRQAPGKGLEWVGYISPNSGATYQADSVKGRFTISADTSKNTAYLQMNSLRAEDTAVYYCARDSRRYVRGWDYWGQGTLVTVSS VL: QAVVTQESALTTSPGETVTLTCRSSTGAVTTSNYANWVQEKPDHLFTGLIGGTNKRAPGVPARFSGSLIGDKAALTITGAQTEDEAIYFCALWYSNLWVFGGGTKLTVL , result: 72
